- Test system: Ctenocephalides felis, Diabrotica undecimpunctata, Nephotettix cincticeps or Rhipicephalus sanguineus
- Run Description: Pooled statement: active in one or more of the above tests (Methods A to E)
- Assay type: in vivo
- Cond: active = reaching the threshold of Method A, B, C, D or E; test not given per compound

[
  {
    "Molecule": "Cc1ccc(CS(=O)(=O)N(C)c2c(SC(F)(F)F)c(C#N)nn2-c2c(Cl)cc(C(F)(F)F)cc2Cl)cc1 [Compound 2-74]",
    "active in one or more of the above tests": "active"
  },
  {
    "Molecule": "Cc1ccc(CS(=O)(=O)N(C)c2c([S+]([O-])C(F)(F)F)c(C#N)nn2-c2c(Cl)cc(C(F)(F)F)cc2Cl)cc1 (stereo not drawn) [Compound 2-109]",
    "active in one or more of the above tests": "active"
  },
  {
    "Molecule": "CN(c1c([S+]([O-])C(F)(F)F)c(C#N)nn1-c1c(Cl)cc(C(F)(F)F)cc1Cl)S(=O)(=O)c1cccc(C(F)(F)F)c1 (stereo not drawn) [Compound 5-60]",
    "active in one or more of the above tests": "active"
  }
]

====

- System: Ctenocephalides felis, Diabrotica undecimpunctata, Nephotettix cincticeps or Rhipicephalus sanguineus
- Run Description: Pooled statement: active in one or more of the above tests (Methods A to E)
- Assay type: in vivo
- Cond: active = reaching the threshold of Method A, B, C, D or E; test not given per compound
Readout Kind: active in one or more of the above tests

[
  {
    "Molecule": "CCCCCCCCCS(=O)(=O)N(C)c1c(SC(F)(F)F)c(C#N)nn1-c1c(Cl)cc(C(F)(F)F)cc1Cl",
    "Result": "active"
  },
  {
    "Molecule": "CN(c1c([S+]([O-])C(F)(F)F)c(C#N)nn1-c1c(Cl)cc(C(F)(F)F)cc1Cl)S(=O)(=O)Cc1ccc(F)cc1 (stereo not drawn)",
    "Result": "active"
  },
  {
    "Molecule": "CCCCCCCCCCCCS(=O)(=O)N(C)c1c([S+]([O-])C(F)(F)F)c(C#N)nn1-c1c(Cl)cc(C(F)(F)F)cc1Cl (stereo not drawn) [Compound 1-96]",
    "Result": "active"
  }
]

====

- Test system: Ctenocephalides felis, Diabrotica undecimpunctata, Nephotettix cincticeps or Rhipicephalus sanguineus
- Run Description: Pooled statement: active in one or more of the above tests (Methods A to E)
- Assay type: in vivo
- Cond: active = reaching the threshold of Method A, B, C, D or E; test not given per compound

[
  {
    "Molecule": "CN(c1c([S+]([O-])C(F)(F)F)c(C#N)nn1-c1c(Cl)cc(C(F)(F)F)cc1Cl)S(=O)(=O)C(F)(F)F (centres unmarked)",
    "active in one or more of the above tests": "active"
  },
  {
    "Molecule": "CCCCCCCCS(=O)(=O)N(C)c1c([S+]([O-])C(F)(F)F)c(C#N)nn1-c1c(Cl)cc(C(F)(F)F)cc1Cl (centres unmarked) [Compound 1-123]",
    "active in one or more of the above tests": "active"
  },
  {
    "Molecule": "CN(c1c(S(=O)(=O)C(F)(F)F)c(C#N)nn1-c1c(Cl)cc(C(F)(F)F)cc1Cl)S(=O)(=O)Cc1ccccc1",
    "active in one or more of the above tests": "active"
  },
  {
    "Molecule": "CN(c1c([S+]([O-])C(F)(F)F)c(C#N)nn1-c1c(Cl)cc(C(F)(F)F)cc1Cl)S(=O)(=O)c1ccc([N+](=O)[O-])cc1 (centres unmarked)",
    "active in one or more of the above tests": "active"
  },
  {
    "Molecule": "CN(c1c(SC(F)(F)F)c(C#N)nn1-c1c(Cl)cc(C(F)(F)F)cc1Cl)S(=O)(=O)c1cc(Cl)cc(Cl)c1",
    "active in one or more of the above tests": "active"
  },
  {
    "Molecule": "CN(c1c(SC(F)(F)F)c(C#N)nn1-c1c(Cl)cc(C(F)(F)F)cc1Cl)S(=O)(=O)c1ccccc1",
    "active in one or more of the above tests": "active"
  },
  {
    "Molecule": "CN(c1c(S(=O)(=O)C(F)(F)F)c(C#N)nn1-c1c(Cl)cc(C(F)(F)F)cc1Cl)S(=O)(=O)Cc1cc(Cl)cc(Cl)c1",
    "active in one or more of the above tests": "active"
  },
  {
    "Molecule": "CCCCCCCCS(=O)(=O)N(C)c1c([S+]([O-])C(F)(F)F)c(C#N)nn1-c1c(Cl)cc(C(F)(F)F)cc1Cl (centres unmarked) [Compound 1-93]",
    "active in one or more of the above tests": "active"
  },
  {
    "Molecule": "CCS(=O)(=O)N(C)c1c(S(=O)(=O)C(F)(F)F)c(C#N)nn1-c1c(Cl)cc(C(F)(F)F)cc1Cl",
    "active in one or more of the above tests": "active"
  },
  {
    "Molecule": "CN(c1c([S+]([O-])C(F)(F)F)c(C#N)nn1-c1c(Cl)cc(C(F)(F)F)cc1Cl)S(=O)(=O)Cc1ccc(Cl)cc1 (centres unmarked)",
    "active in one or more of the above tests": "active"
  },
  {
    "Molecule": "COc1ccc(S(=O)(=O)N(C)c2c(SC(F)(F)F)c(C#N)nn2-c2c(Cl)cc(C(F)(F)F)cc2Cl)cc1",
    "active in one or more of the above tests": "active"
  },
  {
    "Molecule": "CN(c1c(SC(F)(F)F)c(C#N)nn1-c1c(Cl)cc(C(F)(F)F)cc1Cl)S(=O)(=O)Cc1ccc(Cl)c(Cl)c1",
    "active in one or more of the above tests": "active"
  },
  {
    "Molecule": "CN(c1c([S+]([O-])C(F)(F)F)c(C#N)nn1-c1c(Cl)cc(C(F)(F)F)cc1Cl)S(=O)(=O)c1ccc(-c2ccc(F)cc2)cc1 (centres unmarked)",
    "active in one or more of the above tests": "active"
  },
  {
    "Molecule": "CN(c1c(SC(F)(F)F)c(C#N)nn1-c1c(Cl)cc(C(F)(F)F)cc1Cl)S(=O)(=O)c1ccc(C(C)(C)C)cc1",
    "active in one or more of the above tests": "active"
  },
  {
    "Molecule": "Cc1cccc(S(=O)(=O)N(C)c2c(SC(F)(F)F)c(C#N)nn2-c2c(Cl)cc(C(F)(F)F)cc2Cl)c1",
    "active in one or more of the above tests": "active"
  },
  {
    "Molecule": "CN(c1c(S(=O)(=O)C(F)(F)F)c(C#N)nn1-c1c(Cl)cc(C(F)(F)F)cc1Cl)S(=O)(=O)CCCCl",
    "active in one or more of the above tests": "active"
  },
  {
    "Molecule": "C=CS(=O)(=O)N(C)c1c([S+]([O-])C(F)(F)F)c(C#N)nn1-c1c(Cl)cc(C(F)(F)F)cc1Cl (centres unmarked)",
    "active in one or more of the above tests": "active"
  },
  {
    "Molecule": "CN(c1c([S+]([O-])C(F)(F)F)c(C(N)=S)nn1-c1c(Cl)cc(C(F)(F)F)cc1Cl)S(=O)(=O)Cc1ccccc1 (centres unmarked)",
    "active in one or more of the above tests": "active"
  },
  {
    "Molecule": "CN(c1c([S+]([O-])C(F)(F)F)c(C#N)nn1-c1c(Cl)cc(C(F)(F)F)cc1Cl)S(=O)(=O)c1cccc2ccccc12 (centres unmarked)",
    "active in one or more of the above tests": "active"
  },
  {
    "Molecule": "CN(c1c(SC(F)(F)F)c(C#N)nn1-c1c(Cl)cc(C(F)(F)F)cc1Cl)S(=O)(=O)Cc1cccs1",
    "active in one or more of the above tests": "active"
  },
  {
    "Molecule": "CN(c1c([S+]([O-])C(F)(F)F)c(C#N)nn1-c1c(Cl)cc(C(F)(F)F)cc1Cl)S(=O)(=O)Cc1cc(Cl)cc(Cl)c1 (centres unmarked)",
    "active in one or more of the above tests": "active"
  },
  {
    "Molecule": "CCCCCCCCCCCCS(=O)(=O)N(C)c1c([S+]([O-])C(F)(F)F)c(C#N)nn1-c1c(Cl)cc(C(F)(F)F)cc1Cl (centres unmarked) [Compound 1-126]",
    "active in one or more of the above tests": "active"
  },
  {
    "Molecule": "COC(=O)c1ccc(I)cc1S(=O)(=O)N(C)c1c([S+]([O-])C(F)(F)F)c(C#N)nn1-c1c(Cl)cc(C(F)(F)F)cc1Cl (centres unmarked)",
    "active in one or more of the above tests": "active"
  },
  {
    "Molecule": "CN(c1c(S(=O)(=O)C(F)(F)F)c(C#N)nn1-c1c(Cl)cc(C(F)(F)F)cc1Cl)S(=O)(=O)Cc1ccc(Cl)cc1",
    "active in one or more of the above tests": "active"
  },
  {
    "Molecule": "Cc1ccc(S(=O)(=O)N(C)c2c(SC(F)(F)F)c(C#N)nn2-c2c(Cl)cc(C(F)(F)F)cc2Cl)cc1",
    "active in one or more of the above tests": "active"
  },
  {
    "Molecule": "CN(c1c(SC(F)(F)F)c(C#N)nn1-c1c(Cl)cc(C(F)(F)F)cc1Cl)S(=O)(=O)c1ccc(F)cc1",
    "active in one or more of the above tests": "active"
  }
]
